- assay_system: biotinylated RBD (BLI sensors) (UniProt P0DTC2 319-537)
- protocol_text: BLI
measured_endpoint: Kd (nM)
Give just the number in nM; leave the unit off.

Query :: Any idea what its Kd is? The binder is Ab 20 (scFv, V domains shown) VH: QVQLVQSGGGSVKPGGSLRLSCAASGYRLSDYYMHWVRQAPGKGLEWVANIKQDGSEKYYVDSVKGRFTISRDNAKNSLYLQMNSLRAEDTAVYYCARVRGWSRGYFDYWGQGTLVTVSS VL: NFMLTQPHSVSESPGKTVTISCTGSSGSIASNYVQWYQQRPGSAPTTVIYEDNQRPSGVPDRFSGSIDSSSNSASLLISGLKTEDEADYYCQSYDSSNHWVFGGGTKLTVL
Result :: 1.9

Query :: Param item = Ab_18 (scFv, V domains shown) VH: EVQLVQSGGGVVQPGRSLRVSCAASGFSFSRYGMHWVRQAPGKGLEWVAFIRHDGSKKYYADSVEGRFTISRDNSRNTVSLEMNSLRGEDTAVYYCAKDGRLEAALDDWGQGTLVTVSS VL: NFMLTQPHSMSGSAGKTVTVSCIRSSGSIANNFVQWYQQRPGSAPTTVIYEDNQRPSGVPDRFSGSIDSSSNSASLTISGLKTEDEADYYCQSYDSSNLVFGGGTRLTVL ; retrieve measured Kd.
Result :: 2.31

Where do the numbers come from? From patent US20230374114A1.
